Assay: inhibitors of hydroxyurea-induced Chk1 phosphorylation, primary screen, imaging, HeLa, phospho-Chk1 antibody, percent positive cells (AID 1186)
Details: hydroxyurea-induced phospho-Chk1 immunofluorescence imaging, higher = more signal
Metric Name: z-score
Number only, please.

Below, each entry is followed by its recorded z-score result.
Given Smiles	Recorded Number
Cc1ccc(S[C@]2(C(=O)NCCN3CCOCC3)CC(=O)N(Cc3ccccc3C(F)(F)F)[C@@H]2c2ccc(CO)cc2I)cc1	0.354
COC(=O)[C@@]1(Cc2ccccc2)[C@H]2c3cc(C(=O)N4CCCC4)n(C[C@H](O)CO)c3C[C@H]2CN1C(=O)c1ccccc1	0.905
C=C(C(=O)CC[C@H](OC(=O)c1cccnc1)c1cccc(OCCO)c1)C(C)C	-0.556

Recorded z-score for "Cc1ccc(S[C@]2(C(=O)NC3CC3)CC(=O)N(Cc3ccccc3Cl)[C@@H]2c2ccc(CO)cc2I)cc1" , please?
0.159

----------
Test: small-molecule microarray binders of probe aCHRDL2, primary screen, biochemical, biotinylated probe, 635/667 nm fluorescence (AID 1100)
Details: higher = more signal
Measured composite z-score of individual entries
Lab note: jot the number down without any unit.

So what does the record say about composite z-score for "C=C(CCCC)C(=O)CC[C@@H](OC(=O)c1ccccc1-c1ccccc1C(=O)O)c1cccc(OCCO)c1" ?
-0.353

Which value of composite z-score has been reported for "NC(=O)NCC#Cc1ccc2c(c1)[C@]1(C(=O)N2)[C@H](C(=O)O)[C@H]2C(=O)O[C@H](c3ccccc3)[C@H](c3ccccc3)N2[C@@H]1c1ccccc1OCCO" in the records?
0.677

Item "CO[C@H]1O[C@H](CO)[C@@H](OC(=O)c2ccc(Br)cc2)[C@@H]2OC(=O)[C@@H](Cc3ccc4ccccc4c3)C/C=C/C[C@H](Cc3ccc4ccccc4c3)C(=O)O[C@@H]12" has what recorded composite z-score?
0.769

Would you kindly share the measured composite z-score for "COCCOC(=O)N1C(=O)[C@@]2(c3ccccc31)[C@H](c1ccc(OCCO)cc1)N1[C@H](c3ccccc3)[C@H](c3ccccc3)OC(=O)[C@H]1[C@@H]2C(=O)Nc1nc2ccccc2s1" ?
0.414

// query composite z-score value for entry "CC(C)N1C(=O)[C@@]2(c3ccc([N+](=O)[O-])cc3)CC(=O)N(C3CCCCC3)[C@@H]2c2ccc(CO)cc21"
-0.173

# get_value(readout='composite z-score', item= "C=C(/C(=C/C[C@@H](OC(=O)c1ccncc1)c1ccccc1OCCO)c1cc(C(=O)OC)ccc1OC)C(C)C" )
-0.151

GET /values?readout=composite z-score&item= CCN(CC)c1ccc(N2CC=CC34O[C@@H]5/C=C\CCC(C)OC(=O)C5[C@H]3C(=O)N(CCO)[C@@H]4C2=O)cc1 (stereo not given in full)
0.477

# lookup: composite z-score of "C=CCOC(=O)[C@H]1[C@@H]2C(=O)O[C@@H](c3ccccc3)[C@@H](c3ccccc3)N2[C@@H](c2ccc(OCCOC(=O)[C@H]3C[C@H]4C(=O)N[C@@H](CCCC[N+](C)(C)C)C(=O)N4[C@H]3c3cccc(OCCO)c3)cc2)[C@]12C(=O)Nc1ccc(I)cc12"
-0.0243

Need composite z-score, item "C=C(C(=O)CC[C@H](OC(=O)c1cccnc1)c1cccc(OCCO)c1)C(C)C"
0.125

What composite z-score value was documented for this compound, "C=CCN1C(=O)[C@@]2(CCC(=O)OC(C)(C)C)N=C(c3ccc(OCCCO)cc3)O[C@H]2c2ccccc21" ?
1

Please look up its composite z-score: "O=C1c2ccccc2[C@](Cc2ccccc2I)(C(=O)NCCN2CCOCC2)[C@H](c2ccc(CO)cc2)N1Cc1ccccc1"
0.345

Any idea what its composite z-score is? The compound is "O=C1O[C@@H](c2ccccc2)[C@@H](c2ccccc2)N2[C@@H](c3ccc(O)cc3)[C@]3(C(=O)Nc4ccccc43)[C@@H](C(=O)Nc3nc4ccccc4s3)[C@H]12"
0.02
